# Tested on: human umbilical vein endothelial cells (HUVEC)
# ASSAY PROTOCOL: HUVEC proliferation assay (VEGF-stimulated, MTT)
# Format: cell-based
# MEASUREMENT CONDITIONS: Homo sapiens, HUVEC, + albumin; read-out: HUVEC + albumin IC50
# Description: HUVEC Proliferation Assay This assay determines the ability of a test compound to inhibit the growth factor-stimulated proliferation of human umbilical vein endothelial cells (“HUVEC”). […] Cellular proliferation was quantified 72 hours later by MTT dye reduction, at which time cells were exposed for 4 hours MTT (Promega Corp.). For screening compound library plates, one or two concentrations (one well per concentration) were employed, and the % inhibition was calculated by the following formula: […]
IC50 reference

Previously resolved entries follow.
> print(dat)
                                   molecule  experimental.value
1  O=C(NOCc1ccccc1)c1ccccc1Sc1ccc2c(/C=C/c3ccccn3)n[nH]c2c1 [Example 35(i)]           0.0047 µM
2  NC(=O)c1ccccc1Sc1ccc2c(/C=C/c3ccccn3)n[nH]c2c1 [Example 35(d)]            > 0.1 µM
3  CCCn1nc(C)cc1C(=O)Nc1cc(C(=O)c2ccc3c(/C=C/c4ccccn4)n[nH]c3c2)ccc1C [Example 41(ii)]            0.013 µM
4  Cc1cc(C(=O)Nc2cc(Nc3ccc4c(/C=C/c5ccccn5)n[nH]c4c3)ccc2F)n(C)n1 [Example 49(a)]           ~0.004 µM
5  CC(=O)Nc1cc(C(=O)c2ccc3c(/C=C/c4ccccn4)n[nH]c3c2)c(C)cc1C [Example 41(nn)]            > 0.1 µM

Look up IC50 with human umbilical vein endothelial cells (HUVEC) for this molecule: CNCCNC(=O)c1ccccc1Sc1ccc2c(/C=C/c3ccccn3)n[nH]c2c1 [Example 35(gg)]
> 0.1 µM

Hello, the source for this data is patent US6534524B1, in case you need it.
